# TARGET_OR_SYSTEM: PIKfyve (Homo sapiens)
# Construct: endogenous in cells; host or cells: VCaP
# Sequence (Q9Y2I7 whole entry): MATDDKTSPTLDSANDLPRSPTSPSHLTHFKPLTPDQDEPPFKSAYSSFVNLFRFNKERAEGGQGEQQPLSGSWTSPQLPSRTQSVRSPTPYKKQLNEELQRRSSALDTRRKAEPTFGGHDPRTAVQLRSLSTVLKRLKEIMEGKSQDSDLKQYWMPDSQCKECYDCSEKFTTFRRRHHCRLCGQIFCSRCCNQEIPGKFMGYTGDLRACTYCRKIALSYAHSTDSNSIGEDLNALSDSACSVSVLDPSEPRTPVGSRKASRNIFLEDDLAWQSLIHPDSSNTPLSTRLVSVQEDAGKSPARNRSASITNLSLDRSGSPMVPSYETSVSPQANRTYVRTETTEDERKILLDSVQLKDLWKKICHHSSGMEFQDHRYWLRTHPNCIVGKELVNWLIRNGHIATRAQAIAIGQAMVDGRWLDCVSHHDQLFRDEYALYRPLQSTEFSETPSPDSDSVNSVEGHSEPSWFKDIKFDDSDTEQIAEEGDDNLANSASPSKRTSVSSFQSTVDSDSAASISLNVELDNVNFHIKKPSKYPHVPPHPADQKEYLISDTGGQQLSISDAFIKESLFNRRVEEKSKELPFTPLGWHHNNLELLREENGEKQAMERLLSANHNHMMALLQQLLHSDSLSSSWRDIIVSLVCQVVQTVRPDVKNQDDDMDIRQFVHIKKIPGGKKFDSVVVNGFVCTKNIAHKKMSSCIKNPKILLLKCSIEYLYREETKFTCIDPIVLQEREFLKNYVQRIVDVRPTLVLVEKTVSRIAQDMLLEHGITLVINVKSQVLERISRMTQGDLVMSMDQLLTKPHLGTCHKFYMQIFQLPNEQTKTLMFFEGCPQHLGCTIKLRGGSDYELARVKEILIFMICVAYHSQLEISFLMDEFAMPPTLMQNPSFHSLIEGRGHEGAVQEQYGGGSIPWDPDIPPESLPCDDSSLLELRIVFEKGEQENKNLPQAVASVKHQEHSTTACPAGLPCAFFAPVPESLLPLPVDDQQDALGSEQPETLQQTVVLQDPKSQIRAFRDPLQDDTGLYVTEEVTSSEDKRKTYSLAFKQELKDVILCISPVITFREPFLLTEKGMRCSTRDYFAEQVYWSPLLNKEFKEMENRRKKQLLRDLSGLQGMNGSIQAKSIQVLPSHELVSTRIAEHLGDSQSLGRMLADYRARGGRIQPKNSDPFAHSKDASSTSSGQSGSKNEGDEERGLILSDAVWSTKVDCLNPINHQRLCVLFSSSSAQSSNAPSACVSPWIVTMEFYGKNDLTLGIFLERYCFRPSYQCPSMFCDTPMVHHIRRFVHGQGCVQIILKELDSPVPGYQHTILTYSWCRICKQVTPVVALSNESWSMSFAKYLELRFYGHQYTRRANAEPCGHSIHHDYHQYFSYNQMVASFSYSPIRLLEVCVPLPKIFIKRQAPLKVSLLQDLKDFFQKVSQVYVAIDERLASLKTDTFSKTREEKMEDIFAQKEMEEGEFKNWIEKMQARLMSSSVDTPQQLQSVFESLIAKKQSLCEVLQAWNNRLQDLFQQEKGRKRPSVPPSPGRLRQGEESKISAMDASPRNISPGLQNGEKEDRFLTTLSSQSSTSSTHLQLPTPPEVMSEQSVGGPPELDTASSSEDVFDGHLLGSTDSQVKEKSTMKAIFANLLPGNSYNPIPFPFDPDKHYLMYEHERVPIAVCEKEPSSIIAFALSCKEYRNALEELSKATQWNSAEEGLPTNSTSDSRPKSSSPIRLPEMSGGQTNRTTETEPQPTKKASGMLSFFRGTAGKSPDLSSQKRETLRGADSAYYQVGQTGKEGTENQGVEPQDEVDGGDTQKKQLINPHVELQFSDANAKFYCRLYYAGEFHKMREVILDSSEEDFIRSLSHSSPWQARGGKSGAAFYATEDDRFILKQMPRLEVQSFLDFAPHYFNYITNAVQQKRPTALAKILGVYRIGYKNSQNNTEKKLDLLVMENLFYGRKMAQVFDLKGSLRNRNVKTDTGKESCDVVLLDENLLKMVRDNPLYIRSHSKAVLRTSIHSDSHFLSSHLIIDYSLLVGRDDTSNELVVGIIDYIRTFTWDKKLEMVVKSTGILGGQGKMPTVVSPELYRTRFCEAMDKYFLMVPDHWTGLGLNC
# METHOD_SUMMARY: Degradation of PIKfyve proteins in VCaP tumor cells (24 h, Western blot)
# Format: cell-based
# MEASUREMENT_SETUP: 37° C., compared with DMSO control, WB, read-out: DC50 (concentration that achieves 50% degradation activity)
ASSAY_METRIC: DC50

Answered examples (2):
MOLECULE	TARGET_OR_SYSTEM	DC50
Cc1cccc(/C=N/Nc2cc(N3CCOCC3)nc(OCCc3ccc(NC(=O)CCCCCNc4cccc5c4C(=O)N(C4CCC(=O)NC4=O)C5=O)cc3)n2)c1 (stereo not drawn)	PIKfyve (Homo sapiens)	100 to 10000 nM
Cc1cccc(/C=N/Nc2cc(N3CCOCC3)nc(OCCc3ccc(NC(=O)CCC(=O)Nc4cccc5c4C(=O)N(C4CCC(=O)NC4=O)C5)cc3)n2)c1 (stereo not drawn)	PIKfyve (Homo sapiens)	1 to 100 nM

With those in mind, consider the next molecule.
"Cc1cccc(/C=N/Nc2cc(N3CCOCC3)nc(OCCc3ccc(NC(=O)CCCCCCCCC(=O)N[C@H](C(=O)N4C[C@H](O)C[C@H]4C(=O)NCc4ccc(-c5scnc5C)cc4)C(C)(C)C)cc3)n2)c1" yielded DC50 of 1 to 100 nM
